All values here come from patent US12331032B2.

Protein target, amino acids: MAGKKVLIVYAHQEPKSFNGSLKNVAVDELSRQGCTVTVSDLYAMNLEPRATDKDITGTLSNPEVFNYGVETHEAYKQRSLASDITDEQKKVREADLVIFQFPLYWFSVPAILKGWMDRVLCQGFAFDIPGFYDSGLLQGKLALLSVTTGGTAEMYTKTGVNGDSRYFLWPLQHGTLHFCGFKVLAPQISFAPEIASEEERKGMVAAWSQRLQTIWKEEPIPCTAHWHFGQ
Hi there, I'd appreciate the recorded IC50 for every entry that follows.
Quick reminder: number only, in µM, skip the unit.

# input # lookup: IC50 of COc1ccc2c(NCc3cccnc3)ccnc2c1 [QR2I-44]
# output 7.51

# input Then CCN(CC)CCCC(C)Nc1ccnc2cc(Cl)ccc12 (centres unmarked) [chloroquine] ?
# output 70.9
